Test summary: yeast display, Sf9 membrane polyspecificity reagent, FACS + sequencing; frameworks hold sequencing errors
Property measured: polyreactivity (PSR sort gate)

[[record]]
primary_sequence = "QVQLVESGGGLVQAGGSLSLSCAASGLNFVKNTMGWYRQAPGKETELVAGISQRGGSTYYADSEKGRFTISRDNAKNTVYLQMNSLKPEETAVYYCAAYSRTFEGHRGGYWGQGTQVTVSS"
meas_value = "high polyreactivity"

[[record]]
primary_sequence = "QVQLVDSGGGLVQAGGSLRLSCAASGFTFTPNAMGWYRQAPGTERELVAAISRRGGSTYYADSVKGRFTISRDNAKNTVYLQMNSLKPEDTAVYYCAASSSGRGGYWGQGTQVTVSS"
meas_value = "high polyreactivity"

[[record]]
primary_sequence = "QVQLVESGGGLVQAGGSLRLSCSASGRTFANYAMGWYRQAPGKERELVAAISSGGNTYYADSVKGRCTISRDNAKNTVYLQMNSLKPEDTAVYYCAAQPYYYFDEYTQYDYWGQGTQVTVSS"
meas_value = "high polyreactivity"

[[record]]
primary_sequence = "QVQLVESGGGLVQAGGSLRLSCSASGSISHYAMGWYRQAPGKERELVAAISRRGGSTYYADSVKGRFTISRDNAKNTVYLQKNSLKPEDTAVYYCNKATSYFTVRGYDYCGQGTQVTVSS"
meas_value = "high polyreactivity"


Problem: Param item = `QVQRVESGLGLVQAGCSLRLTCAASGRIFDGYAMGWYRPARGKERELVATISSGGFTYYADSVKGSFTISRDNAKNTFYLQMNILKPEDTAVYYCAATPICSGGWGDYWGQGTQVTVSS` ; retrieve measured polyreactivity (PSR sort gate).
Result: low polyreactivity

Problem: What do we get for `QVQLVESGGGLVQAGGSLRLSCAASGFTFSWYAMGWYRQAPGKERELVAVITGAGITDYADSVKGRFTISRDNAKNTVYLQMNSLKPEDTAVYYCNAKSDRGVSGSGSGAYDYWGQGTQVTVSS` ?
Result: low polyreactivity

Problem: // same read-out, input: `QVQLVESGGGLVQAGGSLRLSCAASGNTIIRYPMGWYRPAPGKERELVAAISYSGGRTYYADSVKGRFTISRDSAKNTVYLQMNRLKPEDSAVLYCNAASRYGGDYWGQGSQVTVSS`
Result: high polyreactivity

Problem: Same question, `QVQLVESGGGLVQAGGSLRLSCAASGYTFRANGMGWYRQAPGKERELVAAITQSVDNTYYADSVKGRFTISRDNAKNTVYLQVNSLKPEDTAVYYCATEYGQTGYPQMGYWGQGTQVTVSS` this time
Result: low polyreactivity

Problem: Param item: `QVQLVESGGGLVQAGGSLRLSCAASGRIFRYYAMGWYRQAPGKERELVASITRRGGSTYYADSVKGRFTISRDNAKNTVYLQMNSLKPEDTAVYYCAADTYYNLGNYWGQGTQVTVSS`
Result: high polyreactivity

Problem: One more sequence: `QVQLVESGGGLVQAGGSLRLSCAASGSIFWYNTMGWYRQAPGKERELVAAISSSGGTTYYADSVKGRFTISRDNAKNTVYLQMNSLKPEDTAVYYCAATVGDAYYEYDYWGQGTQVTVSS`
Result: low polyreactivity

Problem: Can you handle `QVQLVESGGGLVQAGGSLRISCAASGGNFDSNAMGWTRPAPGKVRELVAAISDSGGSTYYADSVKGRFTISRDNAYNTVYLQMNSLKPEDTAVYYCAADSDYHFVNYRFGMDYWGQGTQVTVSS` next?
Result: low polyreactivity
